This collection of values is drawn from patent US20080269251A1.

# measurement.target: human adrenergic-α2A receptor (Homo sapiens)
# Construct: expressed in transfected cells; host or cells: CHO cells, stably transfected; membrane preparation
# Sequence (P08913 whole entry): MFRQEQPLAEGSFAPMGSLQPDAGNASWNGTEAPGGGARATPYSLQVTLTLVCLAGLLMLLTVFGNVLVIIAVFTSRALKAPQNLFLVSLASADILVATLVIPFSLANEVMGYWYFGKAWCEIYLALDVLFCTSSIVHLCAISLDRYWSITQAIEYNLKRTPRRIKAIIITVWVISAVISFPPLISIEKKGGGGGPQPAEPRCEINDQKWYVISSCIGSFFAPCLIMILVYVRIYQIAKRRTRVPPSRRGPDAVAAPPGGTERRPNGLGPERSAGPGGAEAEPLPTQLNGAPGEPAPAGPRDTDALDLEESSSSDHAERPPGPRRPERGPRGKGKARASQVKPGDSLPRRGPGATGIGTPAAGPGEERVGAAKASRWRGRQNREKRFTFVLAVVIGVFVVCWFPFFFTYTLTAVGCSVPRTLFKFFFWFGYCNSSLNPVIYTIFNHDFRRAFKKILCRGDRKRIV
# test: Radioligand binding experiment for hα2A-adrenergic receptor ([3H]raulwolscine)
# details: [3H]raulwolscine 1 nM, 60 minutes at 25° C.; read-out: h-α2A pIC50 (converted)
quantity.measured: IC50 (nM)

CC(=O)Cn1ccnc(NC2CCN(Cc3ccc4ccccc4c3)CC2)c1=O : 200
CC(C)(C)OC(=O)NCc1ccc(Cn2ccnc(NC3CCN(Cc4ccc5ccccc5c4)CC3)c2=O)cc1 : 251

[1] O=c1c(NC2CCN(Cc3ccc4ccccc4c3)CC2)nccn1-c1cncnc1
[2] COc1ccc(Cn2c(-c3cccc(CN4CCCCC4)c3)c(Cl)nc(NC3CCN(Cc4ccc5ccccc5c4)CC3)c2=O)cc1
Qu. Please state the entry with greater IC50 among 1 and 2 . # reply format: chosen label
Ans. 1
(1: 631 nM, 2: 100 nM)
